System: 832693-133-R-J1-PDC multi-cell spheroids, viability
Assay: Anticancer human tumor 832693-133-R-J1-PDC patient-derived head and neck squamous carcinoma cell line growth inhibition [IpAb]
Conditions: second compound 1 µM; first compound 0.00316 µM; stronger effect = lower value
What viability, T/C was measured for each of the following?
Numbers only, in %.

Study these solved cases before continuing.
Cn1ncnc1[C@H]1c2n[nH]c(=O)c3cc(F)cc(c23)N[C@@H]1c1ccc(F)cc1 + CCN1CCN(Cc2ccc(Nc3ncc(F)c(-c4cc(F)c5nc(C)n(C(C)C)c5c4)n3)nc2)CC1 :: 60.6
CC(C)n1nc(-c2ccc3oc(N)nc3c2)c2c(N)ncnc21 + CCN1CCN(Cc2ccc(Nc3ncc(F)c(-c4cc(F)c5nc(C)n(C(C)C)c5c4)n3)nc2)CC1 :: 41.6

# input Name the recorded viability, T/C of the item CC(C)n1nc(-c2ccc3oc(N)nc3c2)c2c(N)ncnc21 + CC(C)NCC(C(=O)N1CCN(c2ncnc3c2C(C)CC3O)CC1)c1ccc(Cl)cc1 in your answer.
# output 106

* * *

Tested on: 832693-133-R-J1-PDC multi-cell spheroids, viability
Test: Anticancer human tumor 832693-133-R-J1-PDC cell line growth inhibition [IpAb];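 note: spheroids exposed to the drugs for one week before the viability readout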;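 for viability, T/C: 100% = DMSO vehicle control wells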
Conditions: second compound 0.1 µM; first compound 0.1 µM; stronger effect = lower value
Provide the reported viability, T/C of each item.
Give bare numbers, in %.

Cn1nccc1Nc1nccc(-c2ccn(C(CO)c3ccc(Cl)c(F)c3)c(=O)c2)n1 (stereo not given) + CCN1CCN(Cc2ccc(Nc3ncc(F)c(-c4cc(F)c5nc(C)n(C(C)C)c5c4)n3)nc2)CC1 :: 59.5
Cn1ncnc1[C@H]1c2n[nH]c(=O)c3cc(F)cc(c23)N[C@@H]1c1ccc(F)cc1 + CCN1CCN(Cc2ccc(Nc3ncc(F)c(-c4cc(F)c5nc(C)n(C(C)C)c5c4)n3)nc2)CC1 :: 63.2
Cn1nccc1Nc1nccc(-c2ccn(C(CO)c3ccc(Cl)c(F)c3)c(=O)c2)n1 (stereo not given) + CC(C)NCC(C(=O)N1CCN(c2ncnc3c2C(C)CC3O)CC1)c1ccc(Cl)cc1 :: 64.3
C=CC(=O)N1CCN(c2nc(=O)n(-c3c(C)ccnc3C(C)C)c3nc(-c4c(O)cccc4F)c(F)cc23)C(C)C1 (stereo not given) + CC(C)NCC(C(=O)N1CCN(c2ncnc3c2C(C)CC3O)CC1)c1ccc(Cl)cc1 :: 91.6

The record that follows has no viability, T/C shown yet.
# input Provide the reported viability, T/C (system: 832693-133-R-J1-PDC multi-cell spheroids, viability) for C=CCn1c(=O)c2cnc(Nc3ccc(N4CCN(C)CC4)cc3)nc2n1-c1cccc(C(C)(C)O)n1 + CC(C)NCC(C(=O)N1CCN(c2ncnc3c2C(C)CC3O)CC1)c1ccc(Cl)cc1
# output 58

* * *

Tested on: 832693-133-R-J1-PDC multi-cell spheroids, viability
Assay: Anticancer human tumor 832693-133-R-J1-PDC cell line growth inhibition [IpAb];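 note: spheroids exposed to the drugs for one week before the viability readout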
Conditions: curve of first compound; second compound 10 µM
endpoint: IC50 (nM)
Answers are plain numbers, in nM.

Observe how each entry below is paired with its result.
Cc1nc(NC(=O)N2CCCC2C(N)=O)sc1-c1ccnc(C(C)(C)C(F)(F)F)c1 (stereo not drawn) + CC(C)NCC(C(=O)N1CCN(c2ncnc3c2C(C)CC3O)CC1)c1ccc(Cl)cc1 :: 45
CC1(C)CCC(CN2CCN(c3ccc(C(=O)NS(=O)(=O)c4ccc(NCC5CCOCC5)c([N+](=O)[O-])c4)c(Oc4cnc5[nH]ccc5c4)c3)CC2)=C(c2ccc(Cl)cc2)C1 + CC(C)NCC(C(=O)N1CCN(c2ncnc3c2C(C)CC3O)CC1)c1ccc(Cl)cc1 :: 3640
CC(C)(C)c1cnc(CSc2cnc(NC(=O)C3CCNCC3)s2)o1 + CC(C)NCC(C(=O)N1CCN(c2ncnc3c2C(C)CC3O)CC1)c1ccc(Cl)cc1 :: 158
CC(=O)c1c(C)c2cnc(Nc3ccc(N4CCNCC4)cn3)nc2n(C2CCCC2)c1=O + CC(C)NCC(C(=O)N1CCN(c2ncnc3c2C(C)CC3O)CC1)c1ccc(Cl)cc1 :: 2.82
Cn1nccc1Nc1nccc(-c2ccn(C(CO)c3ccc(Cl)c(F)c3)c(=O)c2)n1 (stereo not drawn) + CC(C)NCC(C(=O)N1CCN(c2ncnc3c2C(C)CC3O)CC1)c1ccc(Cl)cc1 :: 326
C=CCn1c(=O)c2cnc(Nc3ccc(N4CCN(C)CC4)cc3)nc2n1-c1cccc(C(C)(C)O)n1 + CC(C)NCC(C(=O)N1CCN(c2ncnc3c2C(C)CC3O)CC1)c1ccc(Cl)cc1 :: 42.9
Cn1ncc(Cl)c1-c1cc(C(=O)NC(CN)Cc2cccc(F)c2)sc1Cl (stereo not drawn) + CC(C)NCC(C(=O)N1CCN(c2ncnc3c2C(C)CC3O)CC1)c1ccc(Cl)cc1 :: 2630
C=CC(=O)N1CCN(c2nc(=O)n(-c3c(C)ccnc3C(C)C)c3nc(-c4c(O)cccc4F)c(F)cc23)C(C)C1 (stereo not drawn) + CC(C)NCC(C(=O)N1CCN(c2ncnc3c2C(C)CC3O)CC1)c1ccc(Cl)cc1 :: 3740

# input Fill in: IC50 on 832693-133-R-J1-PDC multi-cell spheroids, viability, entry Cn1cnc2c(F)c(Nc3ccc(Br)cc3Cl)c(C(=O)NOCCO)cc21 + CC(C)NCC(C(=O)N1CCN(c2ncnc3c2C(C)CC3O)CC1)c1ccc(Cl)cc1
# output 160

* * *

System: 832693-133-R-J1-PDC multi-cell spheroids, viability
Assay: Anticancer human tumor 832693-133-R-J1-PDC cell line growth inhibition [IpAb];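 note: spheroids exposed to the drugs for one week before the viability readout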;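 for viability, T/C: 100% = DMSO vehicle control wells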
Details: second compound 10 µM; first compound 0.0316 µM; stronger effect = lower value
For each entry below, report its viability, T/C value.
Numbers only, in %.

Solved cases (4 shown):
COc1c(OCCCN2CCOCC2)ccc2c3n(c(=NC(=O)c4cnc(N)nc4)nc12)CCN3 + CC(C)NCC(C(=O)N1CCN(c2ncnc3c2C(C)CC3O)CC1)c1ccc(Cl)cc1 :: 14.2
Cc1nc(NC(=O)N2CCCC2C(N)=O)sc1-c1ccnc(C(C)(C)C(F)(F)F)c1 (stereo not given) + CC(C)NCC(C(=O)N1CCN(c2ncnc3c2C(C)CC3O)CC1)c1ccc(Cl)cc1 :: 55.6
C=CCn1c(=O)c2cnc(Nc3ccc(N4CCN(C)CC4)cc3)nc2n1-c1cccc(C(C)(C)O)n1 + CC(C)NCC(C(=O)N1CCN(c2ncnc3c2C(C)CC3O)CC1)c1ccc(Cl)cc1 :: 52.4
Cn1nccc1Nc1nccc(-c2ccn(C(CO)c3ccc(Cl)c(F)c3)c(=O)c2)n1 (stereo not given) + CC(C)NCC(C(=O)N1CCN(c2ncnc3c2C(C)CC3O)CC1)c1ccc(Cl)cc1 :: 56.3

The record that follows has no viability, T/C shown yet.
# input Identify measured viability, T/C obtained with 832693-133-R-J1-PDC multi-cell spheroids, viability for CCCS(=O)(=O)Nc1ccc(F)c(C(=O)c2c[nH]c3ncc(-c4ccc(Cl)cc4)cc23)c1F + CC(C)NCC(C(=O)N1CCN(c2ncnc3c2C(C)CC3O)CC1)c1ccc(Cl)cc1 .
# output 53.5

* * *

Test system: 832693-133-R-J1-PDC multi-cell spheroids, viability
Assay: Anticancer human tumor 832693-133-R-J1-PDC cell line growth inhibition [IpAb]; active means viability on the fitted dose curve at most 10% of control; inactive means the rest;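 note: spheroids exposed to the drugs for one week before the viability readout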
Conditions: second compound 0.0316 µM; first compound 10 µM
Description: Combinatorial screen of targeted agents with ipatasertib and abemaciclib in multi-cell type tumor spheroids […] Compounds. […] If the clinical Cmax for an agent had not been determined, the highest concentration tested was 10 microM. NCI60 Cell Culture. […] The optimal seeding densities for each of the cell lines at each time point assessed were determined prior to performing the concentration response studies. […]
Could you please pick one outcome from this set? active, inactive

# input Query: recorded result category for CCCS(=O)(=O)Nc1ccc(F)c(C(=O)c2c[nH]c3ncc(-c4ccc(Cl)cc4)cc23)c1F + CCN1CCN(Cc2ccc(Nc3ncc(F)c(-c4cc(F)c5nc(C)n(C(C)C)c5c4)n3)nc2)CC1 in this test
# output inactive

# input For Cc1nc(NC(=O)N2CCCC2C(N)=O)sc1-c1ccnc(C(C)(C)C(F)(F)F)c1 (configuration not stated) + CCN1CCN(Cc2ccc(Nc3ncc(F)c(-c4cc(F)c5nc(C)n(C(C)C)c5c4)n3)nc2)CC1 , what call appears in the results of this test?
# output active

# input Field: outcome | Entry: C=CCn1c(=O)c2cnc(Nc3ccc(N4CCN(C)CC4)cc3)nc2n1-c1cccc(C(C)(C)O)n1 + CCN1CCN(Cc2ccc(Nc3ncc(F)c(-c4cc(F)c5nc(C)n(C(C)C)c5c4)n3)nc2)CC1
# output inactive

* * *

Tested on: 832693-133-R-J1-PDC multi-cell spheroids, viability
Test: Anticancer human tumor 832693-133-R-J1-PDC cell line growth inhibition [IpAb];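 note: spheroids exposed to the drugs for one week before the viability readout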;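 for viability, T/C: 100% = DMSO vehicle control wells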
Conditions: second compound 0.316 µM; first compound 3.16 µM; stronger effect = lower value
endpoint: viability, T/C (%)
Numbers only, in %.

Consider the reported viability, T/C for these compounds:
CCCS(=O)(=O)Nc1ccc(F)c(C(=O)c2c[nH]c3ncc(-c4ccc(Cl)cc4)cc23)c1F + CC(C)NCC(C(=O)N1CCN(c2ncnc3c2C(C)CC3O)CC1)c1ccc(Cl)cc1 :: 110
CCCS(=O)(=O)Nc1ccc(F)c(C(=O)c2c[nH]c3ncc(-c4ccc(Cl)cc4)cc23)c1F + CCN1CCN(Cc2ccc(Nc3ncc(F)c(-c4cc(F)c5nc(C)n(C(C)C)c5c4)n3)nc2)CC1 :: 26.6
C=CCn1c(=O)c2cnc(Nc3ccc(N4CCN(C)CC4)cc3)nc2n1-c1cccc(C(C)(C)O)n1 + CC(C)NCC(C(=O)N1CCN(c2ncnc3c2C(C)CC3O)CC1)c1ccc(Cl)cc1 :: 14.9
Cn1ncc(Cl)c1-c1cc(C(=O)NC(CN)Cc2cccc(F)c2)sc1Cl (stereo unspecified) + CC(C)NCC(C(=O)N1CCN(c2ncnc3c2C(C)CC3O)CC1)c1ccc(Cl)cc1 :: 92.3
Cn1ncc(Cl)c1-c1cc(C(=O)NC(CN)Cc2cccc(F)c2)sc1Cl (stereo unspecified) + CCN1CCN(Cc2ccc(Nc3ncc(F)c(-c4cc(F)c5nc(C)n(C(C)C)c5c4)n3)nc2)CC1 :: 32.1

Moving on to another compound below.
# input Please look at this compound and report its viability, T/C: Cc1nc(NC(=O)N2CCCC2C(N)=O)sc1-c1ccnc(C(C)(C)C(F)(F)F)c1 (stereo unspecified) + CCN1CCN(Cc2ccc(Nc3ncc(F)c(-c4cc(F)c5nc(C)n(C(C)C)c5c4)n3)nc2)CC1
# output 11.5
